As shown below, each of these compounds has a reported normalized growth value.
experiment: chemical genetic growth profiling, strain panel (AID 1159580);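 also: tested at 20 µM; growth read once vehicle control cultures reached saturation at 30 °C; 1 = growth at the plate median or of vehicle wells; lower values mean less growth of the strain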; conditions: S. cerevisiae deletion strains, growth OD, locus YIR030C, strain dcg1, hits give low values
Hit rate of the full screen: of about 5,500 compounds, about 2,000 (36%) were called active. Another 18% or so got no clear call; they are omitted. Some of the results follow.

As a guide, the following entries are already answered.
CN(C)CCCN1c2ccccc2CCc2ccc(Cl)cc21
0.995 (inactive)
CCCSc1ccc2nc(NC(=O)OC)[nH]c2c1
0.983 (inactive)
CC(C)CCCC(C)C1CCC2C3=CC[C@H]4C[C@@H](O)CC[C@]4(C)C3CC[C@@]21C (some centres not stated)
0.994 (inactive)
CCCc1cc(=O)[nH]c(=S)[nH]1
0.998 (inactive)
CC(C)c1ccc2c(c1)CCC1[C@](C)(CN)CCC[C@]21C (some centres not stated)
0.19 (active)

Ask: Which normalized growth reading was recorded for the compound COC(=O)c1c(OC)cc2c(c1C)Oc1c(Cl)c(OC(C)=O)c(Cl)c(C)c1C(=O)O2 ?
Reply: 0.998 (inactive)

Ask: Which normalized growth reading was recorded for the compound Cc1ccc2c(c1)C1(C)CCCC(C)(C(=O)O)C1CC2 (configuration not stated) ?
Reply: 0.998 (inactive)
